Test: clinical
Conditions: both, human, in vivo, topical or ocular, Avg T1/2
metric: half-life

Query :: Which half-life reading was recorded for the molecule `NC(=O)CC[C@@H]1NC(=O)[C@H](Cc2ccccc2)NC(=O)[C@H](Cc2ccc(O)cc2)NC(=O)CCSSC[C@@H](C(=O)N2CCC[C@H]2C(=O)N[C@H](CCCN=C(N)N)C(=O)NCC(N)=O)NC(=O)[C@H](CC(N)=O)NC1=O` ?
Result :: 1.2 h

###

Assay: clinical
Conditions: both, human, in vivo, topical or ocular
metric: Tmax (min)
Give a bare numeral; the unit min is implied.

Query :: Which Tmax reading was recorded for the molecule `NC(=O)CC[C@@H]1NC(=O)[C@H](Cc2ccccc2)NC(=O)[C@H](Cc2ccc(O)cc2)NC(=O)CCSSC[C@@H](C(=O)N2CCC[C@H]2C(=O)N[C@H](CCCN=C(N)N)C(=O)NCC(N)=O)NC(=O)[C@H](CC(N)=O)NC1=O` ?
Result :: 48

###

Assay: clinical
Conditions: both, human, in vivo, sc
metric: CL/F
Give the figure together with its unit, number first.

Query :: Which CL/F reading was recorded for the compound `NC(=O)CC[C@@H]1NC(=O)[C@H](Cc2ccccc2)NC(=O)[C@H](Cc2ccc(O)cc2)NC(=O)CCSSC[C@@H](C(=O)N2CCC[C@H]2C(=O)N[C@H](CCCN=C(N)N)C(=O)NCC(N)=O)NC(=O)[C@H](CC(N)=O)NC1=O` ?
Result :: 233 mL/min

###

Assay: clinical
Conditions: both, human, in vivo
metric: CL/F (mL/min)
Give a bare numeral; the unit mL/min is implied.

Query :: Which CL/F reading was recorded for the molecule `NC(=O)CC[C@@H]1NC(=O)[C@H](Cc2ccccc2)NC(=O)[C@H](Cc2ccc(O)cc2)NC(=O)CCSSC[C@@H](C(=O)N2CCC[C@H]2C(=O)N[C@H](CCCN=C(N)N)C(=O)NCC(N)=O)NC(=O)[C@H](CC(N)=O)NC1=O` ?
Result :: 383

###

Test: clinical
Details: both, human, in vivo, F % (fraction bioavailable)
metric: bioavailability

Query :: Which bioavailability reading was recorded for the compound NC(=O)CC[C@@H]1NC(=O)[C@H](Cc2ccccc2)NC(=O)[C@H](Cc2ccc(O)cc2)NC(=O)CCSSC[C@@H](C(=O)N2CCC[C@H]2C(=O)N[C@H](CCCN=C(N)N)C(=O)NCC(N)=O)NC(=O)[C@H](CC(N)=O)NC1=O [desmopressin, 1-desamino-8-D-arginine vasopressin] ?
Result :: ~55%

###

Assay: clinical
Details: both, human, in vivo, sc, Avg T1/2
metric: half-life
Give the figure together with its unit, number first.

Query :: Which half-life reading was recorded for the compound `NC(=O)CC[C@@H]1NC(=O)[C@H](Cc2ccccc2)NC(=O)[C@H](Cc2ccc(O)cc2)NC(=O)CCSSC[C@@H](C(=O)N2CCC[C@H]2C(=O)N[C@H](CCCN=C(N)N)C(=O)NCC(N)=O)NC(=O)[C@H](CC(N)=O)NC1=O` ?
Result :: 1.68 h
